# TGI annotations
Test system: T-47D breast
Assay: NCI tumour cell line growth inhibition, 48 h

- Compound: "C=C(CN1CCN(c2cc(C(F)(F)F)cc(C(F)(F)F)c2)CC1)c1ccc(C(=O)Nc2ccccc2N)cc1"
  TGI: "> 100 µM"
- Compound: "CC(=O)CC(O)(C(F)(F)Cl)C(F)(Cl)Cl (stereo unspecified)"
  TGI: "> 10 µM"
- Compound: "O=C(O)CN(CCN(CC(=O)O)CC(=O)O)CC(=O)O.[Cu+2].[Na+]"
  TGI: "> 100 µM"
- Compound: "O=C(NCC(O)COc1ccccc1)c1ccccc1O (stereo unspecified)"
  TGI: "> 100 µM"
- Compound: "C[N+]1(CC[N+]2(C)CCCC2c2cccnc2)CCCC1c1cccnc1 (stereo unspecified)"
  TGI: "> 100 µM"
- Compound: "CCCCCn1sc(=O)n(Cc2ccc(CNC(=O)C(C)c3ccc(CC(C)C)cc3)cc2)c1=O (stereo unspecified)"
  TGI: "4.05 µM"
- Compound: "C/C(=C\\COP(=O)(O)OP(=O)(O)O)CC/C=C(\\C)CNc1c(F)c(F)c(F)c(F)c1F"
  TGI: "> 100 µM"
- Compound: "O=C1N[C@@H]([C@H]2CC[C@H](Cl)CN2)C(=O)N[C@H]1[C@H]1CC[C@H](Cl)CN1"
  TGI: "56.1 µM"
- Compound: "COc1ccc(Cl)cc1NC(=O)O/N=C(\\Cl)C(C)C"
  TGI: "16.8 µM"
- Compound: "COc1oc(C2C/C(=C/C(C)=C/C(C)=C/C(C)=C/c3ccc([N+](=O)[O-])cc3)CO2)c(C)c(=O)c1C (stereo unspecified)"
  TGI: "6.81 µM"
- Compound: "O=C1c2ccccc2-c2cn(Cc3ccccc3)c3cccc(c23)C1c1cccnc1 (stereo unspecified)"
  TGI: "> 50 µM"
